Sourced from paper PMC2849840

Experimental Protocol: Bidirectional transepithelial transport of [3H]lopinavir across MDCK-MDR1 cells
Assay type: in vitro ADME
Measurement Parameters: dog, MDCK-MDR1, pH 7.4, PappB-A, Control (0 mM HEPES) in DPBS, MDCK-MDR1, 37 °C
Quantity: Papp B→A at 0.5 μCi/mL (×10⁻⁶ cm/s)
Answer format: numeric, ×10⁻⁶ cm/s implied, no suffix.

Ask | Entry Cc1cccc(C)c1OCC(=O)N[C@@H](Cc1ccccc1)[C@@H](O)C[C@H](Cc1ccccc1)NC(=O)[C@H](C(C)C)N1CCCNC1=O [lopinavir] : reported Papp B→A at 0.5 μCi/mL = ?
Reply | 148
